Tested on: Mycobacterium tuberculosis
Assay: Antimicrobial activity against Mycobacterium tuberculosis H37Rv SRI 1345 infected in mouse J774 cells assessed as intracellular growth inhibition at 10-fold below MIC after 7 days relative to control
Type: functional
Listing of entries alongside the reported fold change (FC).

Qu. Requested field: fold change (FC). Item: O=[N+]([O-])c1ccc2nc3c(c(-c4ccccc4)c2c1)CCCCC3
Ans. 1.24

Qu. What do we get for O=[N+]([O-])c1ccc2nc3c(c(-c4ccccc4)c2c1)CCCC3 ?
Ans. 1.8

Qu. What do we get for Clc1ccc2nc3c(c(-c4ccccc4)c2c1)CCC3 ?
Ans. 1

Qu. What do we get for CO[C@H]1/C=C/O[C@@]2(C)Oc3c(C)c(O)c4c(O)c(c(/C=N/N5CCN(C)CC5)c(O)c4c3C2=O)NC(=O)/C(C)=C\C=C\[C@H](C)[C@H](O)[C@@H](C)[C@@H](O)[C@@H](C)[C@H](OC(C)=O)[C@@H]1C [RIFAMPIN] ?
Ans. 0.46

====

Assay: Cytotoxicity against mouse J774 cells assessed as cell viability at 10-fold below MIC relative to control
Type: cell-based
Conditions: read-out: Activity
measurement name: viability (%)
Write it as a number; the unit % goes unstated.

Qu. Requested field: viability. Item: Clc1ccc2nc3c(c(-c4ccccc4)c2c1)CCC3
Ans. 86

Qu. What do we get for CO[C@H]1/C=C/O[C@@]2(C)Oc3c(C)c(O)c4c(O)c(c(/C=N/N5CCN(C)CC5)c(O)c4c3C2=O)NC(=O)/C(C)=C\C=C\[C@H](C)[C@H](O)[C@@H](C)[C@@H](O)[C@@H](C)[C@H](OC(C)=O)[C@@H]1C [RIFAMPIN] ?
Ans. 82

Qu. What do we get for O=[N+]([O-])c1ccc2nc3c(c(-c4ccccc4)c2c1)CCCCC3 ?
Ans. 82

Qu. What do we get for O=[N+]([O-])c1ccc2nc3c(c(-c4ccccc4)c2c1)CCCC3 ?
Ans. 67

====

Test: Cytotoxicity against mouse J774 cells assessed as cell viability at 10-fold above MIC relative to control
Format: cell-based
Conditions: read-out: Activity
measurement name: viability (%)
Write it as a number; the unit % goes unstated.

O=[N+]([O-])c1ccc2nc3c(c(-c4ccccc4)c2c1)CCCC3; 25

Next, consider the following molecule.
Qu. Requested field: viability. Item: CO[C@H]1/C=C/O[C@@]2(C)Oc3c(C)c(O)c4c(O)c(c(/C=N/N5CCN(C)CC5)c(O)c4c3C2=O)NC(=O)/C(C)=C\C=C\[C@H](C)[C@H](O)[C@@H](C)[C@@H](O)[C@@H](C)[C@H](OC(C)=O)[C@@H]1C
Ans. 78

====

Tested on: Mycobacterium tuberculosis
Assay: Antimicrobial activity against Mycobacterium tuberculosis H37Rv SRI 1345 assessed as growth inhibition at MIC after 7 days by broth microdilution assay relative to control
Type: functional
measurement name: growth inhibition (GI)
Hey, just the number and the unit after it is fine.

CO[C@H]1/C=C/O[C@@]2(C)Oc3c(C)c(O)c4c(O)c(c(/C=N/N5CCN(C)CC5)c(O)c4c3C2=O)NC(=O)/C(C)=C\C=C\[C@H](C)[C@H](O)[C@@H](C)[C@@H](O)[C@@H](C)[C@H](OC(C)=O)[C@@H]1C [RIFAMPIN]; 65%
O=[N+]([O-])c1ccc2nc3c(c(-c4ccccc4)c2c1)CCCC3; 52%
Clc1ccc2nc3c(c(-c4ccccc4)c2c1)CCC3; 88%

Next, consider the following molecule.
Qu. Requested field: growth inhibition (GI). Item: O=[N+]([O-])c1ccc2nc3c(c(-c4ccccc4)c2c1)CCCCC3
Ans. 76%
